Reference source for all entries: ChEMBL document CHEMBL2218924

Listed below: residual activity values for each entry.
target: RAF proto-oncogene serine/threonine-protein kinase (Homo sapiens); settings: at 1 µM
Report as a plain number; the unit % is understood.

Please review the following examples before continuing.
INSERT INTO results (structure, readout_name, unit_label, reported) VALUES
  ('Nc1ncnc2c1c(-c1ccc(Oc3ccccc3)cc1)cn2C1CCCC1', 'residual activity', '%', 44),
  ('Nc1ncnc2[nH]nc(Nc3ccc(F)cc3)c12', 'residual activity', '%', 56),
  ('COc1ccc(CNC(=O)Nc2ncc([N+](=O)[O-])s2)cc1', 'residual activity', '%', 78);

Moving on to the next molecule.
Exercise: Query for RAF proto-oncogene serine/threonine-protein kinase (Homo sapiens): what residual activity does the record show for `NC(=O)Nc1sc(-c2ccc(F)cc2)cc1C(N)=O` ?
Solution: 54

* * *

target: Death-associated protein kinase 2 (Homo sapiens); conditions: at 1 µM
Listed below: residual activity values for each entry.
Report as a plain number; the unit % is understood.

Please review the following examples before continuing.
INSERT INTO results (structure, reported) VALUES
  ('CCN(CC)CCNC(=O)c1c(C)[nH]c(/C=C2\C(=O)Nc3ccc(Cl)cc32)c1C', 63),
  ('CC(C)[C@H](CO)Nc1nc(Nc2cc(N)cc(Cl)c2)c2ncn(C(C)C)c2n1', 99),
  ('O=c1cc(N2CCOCC2)oc2c1ccc1ccccc12', 92),
  ('N#Cc1c(NC(=O)c2cccc3ccccc23)sc2c1CCCC2', 93);

Exercise: Quick check: residual activity of `CC(C)c1nn(-c2c(Cl)cccc2Cl)c2nc(Cc3ccc(OCCO)cc3)[nH]c(=O)c12` ?
Solution: 92

* * *

target: Activated CDC42 kinase 1 (Homo sapiens) (UniProt Q07912); conditions: at 10 µM
Sequence (Q07912 whole entry, looked up): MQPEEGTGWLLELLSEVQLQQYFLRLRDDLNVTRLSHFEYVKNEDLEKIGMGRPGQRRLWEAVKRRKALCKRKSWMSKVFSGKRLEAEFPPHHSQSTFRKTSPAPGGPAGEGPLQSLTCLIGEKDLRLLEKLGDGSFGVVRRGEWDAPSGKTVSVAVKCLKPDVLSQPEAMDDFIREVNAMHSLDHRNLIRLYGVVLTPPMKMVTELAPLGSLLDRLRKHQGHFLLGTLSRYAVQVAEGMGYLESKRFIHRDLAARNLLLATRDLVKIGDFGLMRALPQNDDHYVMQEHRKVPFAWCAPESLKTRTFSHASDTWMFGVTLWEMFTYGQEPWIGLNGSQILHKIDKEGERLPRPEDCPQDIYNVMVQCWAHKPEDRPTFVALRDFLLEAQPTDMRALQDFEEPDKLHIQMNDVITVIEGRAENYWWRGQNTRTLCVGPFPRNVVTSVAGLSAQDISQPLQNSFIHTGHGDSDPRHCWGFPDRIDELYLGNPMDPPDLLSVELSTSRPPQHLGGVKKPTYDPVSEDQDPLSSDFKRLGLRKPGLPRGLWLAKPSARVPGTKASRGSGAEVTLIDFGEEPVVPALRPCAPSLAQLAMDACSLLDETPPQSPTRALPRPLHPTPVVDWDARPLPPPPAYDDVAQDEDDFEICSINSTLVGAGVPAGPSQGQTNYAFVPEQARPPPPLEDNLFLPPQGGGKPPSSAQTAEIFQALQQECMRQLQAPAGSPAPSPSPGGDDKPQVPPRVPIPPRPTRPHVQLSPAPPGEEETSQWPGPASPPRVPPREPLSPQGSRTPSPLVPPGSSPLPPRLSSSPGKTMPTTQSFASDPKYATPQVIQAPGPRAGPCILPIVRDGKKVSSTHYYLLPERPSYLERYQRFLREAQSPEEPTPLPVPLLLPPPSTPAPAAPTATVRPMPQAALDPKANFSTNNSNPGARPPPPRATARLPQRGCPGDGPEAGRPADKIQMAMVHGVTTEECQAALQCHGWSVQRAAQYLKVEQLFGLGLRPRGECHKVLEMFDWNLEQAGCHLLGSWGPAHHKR
readout.name: residual activity (%)
Report as a plain number; the unit % is understood.

Exercise: Quick check: residual activity of `CC(C)N(CCC(=O)c1ccc2ccccc2c1)Cc1ccccc1` ?
Solution: 63

Exercise: Quick check: residual activity of `O=C1NC(=O)C(c2cn(CCCn3ccnc3)c3ccccc23)=C1Nc1ccccc1` ?
Solution: 11

Exercise: Quick check: residual activity of `CC(C)(C)c1nc2c3ccc(F)cc3c3c(=O)[nH]ccc3c2[nH]1` ?
Solution: 0

Exercise: Quick check: residual activity of `O=C1Nc2ccccc2/C1=C\c1c(Cl)[nH]c2ccccc12` ?
Solution: 48

Exercise: Quick check: residual activity of `O=C(c1cc2cc(O)ccc2[nH]1)c1cc2cc(O)ccc2[nH]1` ?
Solution: 24

* * *

target: Mitogen-activated protein kinase kinase kinase kinase 2 (Homo sapiens) (UniProt Q12851); conditions: at 10 µM
Sequence (Q12851 whole entry): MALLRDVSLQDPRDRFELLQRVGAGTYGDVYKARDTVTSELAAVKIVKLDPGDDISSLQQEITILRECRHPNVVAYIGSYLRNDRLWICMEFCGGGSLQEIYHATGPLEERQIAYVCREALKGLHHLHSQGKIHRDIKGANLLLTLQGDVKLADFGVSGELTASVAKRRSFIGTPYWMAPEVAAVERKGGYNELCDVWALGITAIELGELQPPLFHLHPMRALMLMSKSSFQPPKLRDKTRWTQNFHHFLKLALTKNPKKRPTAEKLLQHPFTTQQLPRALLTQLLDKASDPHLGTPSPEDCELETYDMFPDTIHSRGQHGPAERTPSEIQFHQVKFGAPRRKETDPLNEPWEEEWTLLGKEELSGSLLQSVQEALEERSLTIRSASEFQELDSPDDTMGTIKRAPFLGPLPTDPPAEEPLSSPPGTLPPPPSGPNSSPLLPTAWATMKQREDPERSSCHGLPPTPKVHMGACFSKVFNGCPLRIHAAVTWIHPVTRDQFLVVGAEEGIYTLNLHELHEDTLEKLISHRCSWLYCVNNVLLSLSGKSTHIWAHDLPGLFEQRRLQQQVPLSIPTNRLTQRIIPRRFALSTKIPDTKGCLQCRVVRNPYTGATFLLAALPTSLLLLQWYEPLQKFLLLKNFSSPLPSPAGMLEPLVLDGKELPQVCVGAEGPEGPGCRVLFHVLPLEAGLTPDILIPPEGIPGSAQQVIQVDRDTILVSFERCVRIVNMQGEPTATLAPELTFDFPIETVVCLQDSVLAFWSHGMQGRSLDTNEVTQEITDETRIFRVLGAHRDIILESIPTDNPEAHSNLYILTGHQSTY
Listed below: residual activity values for each entry.
Report as a plain number; the unit % is understood.

INSERT INTO results (structure, readout_name, reported) VALUES
  ('COc1ccc(COc2ccc(Cc3cnc(N)nc3N)cc2OC)cc1', 'residual activity', 63),
  ('CCN(CC)CCNC(=O)c1c(C)[nH]c(/C=C2\C(=O)Nc3ccc(Cl)cc32)c1C', 'residual activity', 0),
  ('O=C(Nc1ccc(Cl)cc1)c1ccccc1NCc1ccncc1', 'residual activity', 58),
  ('O=C1Nc2ccc(Cl)cc2/C1=C/c1cc(Cl)c(O)c(Cl)c1', 'residual activity', 14),
  ('O=C(O)/C=C/c1cc(Br)c(Br)c(Br)c1Br', 'residual activity', 72),
  ('O=C(Nc1nc2ccccc2n1CCN1CCOCC1)c1cccc([N+](=O)[O-])c1', 'residual activity', 67),
  ('CCCCc1c(-c2ccc(O)cc2)[nH]c2nccnc12', 'residual activity', 4),
  ('NC(=O)c1cccc(-c2cc(Nc3ccc(OC(F)(F)F)cc3)ncn2)c1', 'residual activity', 88);

Exercise: Quick check: residual activity of `COc1ccc(Cl)cc1NC(=O)Nc1cc(C)nc2ccccc12` ?
Solution: 77

Exercise: Quick check: residual activity of `Fc1ccc(-c2nc3n(c2-c2ccncc2)CCS3)cc1` ?
Solution: 83

Exercise: Quick check: residual activity of `O=c1cc(N2CCOCC2)oc2c(-c3ccccc3)cccc12` ?
Solution: 70
